Taken from the supplement of paper PMC10567573.

B1: FBF1 (parent)
chain: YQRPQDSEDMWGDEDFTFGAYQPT

- Variants of: B1
- procedure_summary: protein stability index of a GFP-peptide fusion (GPS, HEK-293T) (PSI 1-6); higher = more stable;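 note: lentivirally expressed fusions sorted by FACS into six bins by GFP to DsRed ratio, PSI derived from sequencing read proportions per bin multiplied by bin number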
- experimental_setup: c terminus: a fixed tail appended
Lab note: anything with protein stability index at or over 3 counts as 1; the rest go in -1.

For orientation, consider the following solved cases.
YQRPQDSEDMWGDERFTFGAYQPT :: -1
YQRPQYSEDMWGDEDFTFGAYQPT :: -1
YQRPQDSEDMWGDADFTFGAYQPT :: -1
YQRPQDSEDMWGDEEFTFGAYQPT :: -1
YQRPQDSEDMLGDEDFTFGAYQPT :: 1

protein stability index >= 3 for `YQRPQDSEDMWGDEDLTFGAYQPT` ? -1

Consider next the variant `YQRPQDSEDMCGDEDFTFGAYQPT` in the same way. 1

Request: `YQRPQDSEDEWGDEDFTFGAYQPT` 1

How about this variant: `YQRPQDSEDMWGDEDFTFGAYQIT` -1
